- Compound: "CN(C(=O)c1cnn(C)c1)c1sc(-c2cncc(F)c2)nc1Cl"
  melting point: "151 to 155 °C"
- Compound: "Cc1cncc(-c2nc(C)c(NC(=O)OC(C)(C)C)s2)c1"
  melting point: "135 to 138 °C"
- Compound: "CN(C(=O)CC[S+](C)[O-])c1sc(-c2cncc(F)c2)nc1Br (centres unmarked)"
  melting point: "170 to 173 °C"
- Compound: "CSCC(C)(C)C(=O)N(C)c1sc(-c2cccnc2)nc1C"
  melting point: "83 to 88 °C"
- Compound: "CCc1cc(C(=O)N(C)c2sc(-c3cccnc3)nc2Cl)no1"
  melting point: "121 to 124 °C"
- Compound: "CCc1cc(C(=O)Nc2sc(-c3cccnc3)nc2C)no1"
  melting point: "129 to 130 °C"
- Compound: "CCN(C(=O)C(C)Cn1nc(C)nc1C)c1sc(-c2cccnc2)nc1Cl (centres unmarked)"
  melting point: "102 to 105 °C"
- Compound: "CC(C)(C)OC(=O)Nc1sc(-c2cccnc2)nc1F"
  melting point: "184 to 186 °C"
- Compound: "Cc1nc(-c2cncc(F)c2)sc1N(C)C(=S)NC1CC1"
  melting point: "117 to 119 °C"
- Compound: "Cc1nc(-c2ccc(Cl)nc2)sc1NC(=O)OC(C)(C)C"
  melting point: "154 to 157 °C"
- Compound: "Cc1nc(-c2cncc(Br)c2)sc1N(C)C(=O)OC(C)(C)C"
  melting point: "74 to 76 °C"
- Compound: "CSCC(C)C(=O)Nc1sc(-c2cncc(C#N)c2)nc1C (centres unmarked)"
  melting point: "127 to 131 °C"
- Compound: "CSCC(C)C(=O)N(C(=O)OC(C)(C)C)c1sc(-c2cncc(C#N)c2)nc1C (centres unmarked)"
  melting point: "125 to 128 °C"
- Compound: "CSCCC(=O)Nc1sc(-c2cccnc2)nc1C(F)(F)F"
  melting point: "131 to 133 °C"
- Compound: "CSC(C)(C)CC(=O)Nc1sc(-c2cccnc2)nc1Cl"
  melting point: "113 to 115 °C"
- Compound: "CN(C(=O)NCC[S+](C)[O-])c1cnc(-c2cncc(F)c2)s1 (centres unmarked)"
  melting point: "202 to 203 °C"
- Compound: "Cc1nc(-c2cccnc2)sc1N(C)C(=S)NC(C)C"
  melting point: "163 to 164 °C"
- Compound: "CC(=O)N(C)c1cnc(-c2cccnc2)s1"
  melting point: "162 to 163 °C"
- Compound: "CSCCC(=O)Nc1sc(-c2cncc(F)c2)nc1C"
  melting point: "126 to 130 °C"
- Compound: "COC(=O)CCC(=O)Nc1sc(-c2cccnc2)nc1C"
  melting point: "151 to 153 °C"
- Compound: "CSCCN(C(=O)OC(C)(C)C)c1sc(-c2cccnc2)nc1C"
  melting point: "63 to 68 °C"
- Compound: "Cc1nn(CC(=O)N(C)c2sc(-c3cccnc3)nc2Cl)c(C)c1S(=O)(=O)N(C)C"
  melting point: "185 to 186 °C"
- Compound: "CSCCC(=O)N(C)c1sc(-c2cncc(F)c2)nc1C#N"
  melting point: "97 to 98 °C"
- Compound: "CSCCC(=O)N(C)c1sc(-c2cnccc2F)nc1Cl"
  melting point: "74 to 76 °C"
- Compound: "CSCCC(=O)N(C)c1cnc(-c2ccc(Cl)nc2)s1"
  melting point: "160 to 164 °C"
- Compound: "CC(=O)N(C)c1sc(-c2cccnc2)nc1C"
  melting point: "127 to 130 °C"
- Compound: "Cc1nc(-c2cncc(F)c2)sc1N(C)C(=O)C(C)CS(C)(=O)=O (centres unmarked)"
  melting point: "105 to 109 °C"
- Compound: "COc1ncc(-c2nc(Cl)c(N(C)C(=O)CC[S+](C)[O-])s2)cc1F (centres unmarked)"
  melting point: "132 to 135 °C"
- Compound: "CC(C)(C)OC(=O)Nc1sc(-c2cncc(F)c2)nc1I"
  melting point: "148 to 149 °C"
- Compound: "CN(C(=O)c1cccnc1)c1cnc(-c2cccnc2)s1"
  melting point: "173 to 175 °C"
- Compound: "CS[C@H]1CC1C(=O)Nc1sc(-c2cncc(F)c2)nc1C (some centres unmarked)"
  melting point: "206 to 212 °C"
- Compound: "CCN(C(=O)c1cnn(C)c1C(F)(F)F)c1sc(-c2cccnc2)nc1Cl"
  melting point: "115 to 117 °C"
- Compound: "Cc1nc(-c2cncc(F)c2)sc1NC(=O)C(C)C[S+](C)[O-] (centres unmarked)"
  melting point: "194 to 198 °C"
- Compound: "CC(C[S+](C)[O-])C(=O)N(C)c1sc(-c2cnc(Cl)c(F)c2)nc1Cl (centres unmarked)"
  melting point: "30 to 35 °C"
- Compound: "CN(C(=O)CC[S+](C)[O-])c1sc(-c2cncc(F)c2)nc1F (centres unmarked)"
  melting point: "113 to 116 °C"
- Compound: "CSCC(C)(C)C(=O)N(C)c1sc(-c2cncnc2)nc1C"
  melting point: "123 to 125 °C"
- Compound: "CCNC(=S)N(C)c1sc(-c2cccnc2)nc1C"
  melting point: "137 to 140 °C"
- Compound: "CC(C[S+](C)[O-])C(=O)N(C)c1cnc(-c2cccnc2)s1 (centres unmarked)"
  melting point: "135 to 140 °C"
